# TEST_TARGET: Neu5Ac(a2-6)Gal(b1-4)GlcNAc(b1-6)[Gal(b1-3)]GalNAc
# TEST_SUMMARY: glycan array binding signal (z-score within array); higher = stronger binding
# DETAILS: glycan notation: IUPAC condensed, linker removed
The entries come from a sample that favours the strongest signals as a whole.
glycan array binding signal (z-score) values, listed per item
METRIC: glycan array binding signal (z-score)

Epa13 (Candida glabrata) (protein) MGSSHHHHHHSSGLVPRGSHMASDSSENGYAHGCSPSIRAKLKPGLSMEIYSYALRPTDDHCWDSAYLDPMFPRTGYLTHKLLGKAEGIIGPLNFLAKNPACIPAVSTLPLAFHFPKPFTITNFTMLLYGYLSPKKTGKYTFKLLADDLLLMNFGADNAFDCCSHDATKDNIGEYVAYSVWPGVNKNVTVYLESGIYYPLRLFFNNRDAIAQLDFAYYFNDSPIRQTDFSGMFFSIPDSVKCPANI: -0.381
Pwp1 (Candida glabrata) (protein) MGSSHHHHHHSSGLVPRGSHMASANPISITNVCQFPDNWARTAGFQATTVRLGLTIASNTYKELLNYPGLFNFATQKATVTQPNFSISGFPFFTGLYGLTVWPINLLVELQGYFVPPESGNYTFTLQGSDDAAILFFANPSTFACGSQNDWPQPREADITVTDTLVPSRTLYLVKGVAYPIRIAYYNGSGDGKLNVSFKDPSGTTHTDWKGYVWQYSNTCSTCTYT: -1.62
Fm1D (Escherichia coli) (protein) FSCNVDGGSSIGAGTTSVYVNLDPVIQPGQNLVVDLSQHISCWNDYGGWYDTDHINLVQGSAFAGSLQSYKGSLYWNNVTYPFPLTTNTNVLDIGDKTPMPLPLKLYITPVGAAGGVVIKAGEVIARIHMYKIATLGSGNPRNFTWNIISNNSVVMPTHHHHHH: 3.09
FimD (Bordetella pertussis) (protein) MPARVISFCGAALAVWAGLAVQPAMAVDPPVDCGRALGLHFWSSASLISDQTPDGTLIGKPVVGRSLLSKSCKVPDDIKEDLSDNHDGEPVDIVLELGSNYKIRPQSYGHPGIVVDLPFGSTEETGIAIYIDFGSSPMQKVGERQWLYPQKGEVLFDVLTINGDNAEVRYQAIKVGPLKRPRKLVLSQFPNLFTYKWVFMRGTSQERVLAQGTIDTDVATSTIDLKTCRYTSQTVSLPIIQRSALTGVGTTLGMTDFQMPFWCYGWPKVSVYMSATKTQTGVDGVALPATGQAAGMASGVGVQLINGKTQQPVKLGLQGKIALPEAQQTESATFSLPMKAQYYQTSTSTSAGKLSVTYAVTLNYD: -0.022
